Where do these numbers come from? They come from patent US20250120916A1.

- Experimental Details: Biodetoxification test, HUVECs
- Recorded Conditions: human
Where a name gives a salt, the structure may show the parent alone.
Value Kind: viability at 8 h, 400 μg mL−1

In: Give the reported value of viability at 8 h, 400 μg mL−1 for this record: COc1cccc2c1C(=O)c1c(O)c3c(c(O)c1C2=O)C[C@@](O)(C(=O)CO)C[C@@H]3O[C@H]1C[C@H](N)[C@H](O)[C@H](C)O1 [DOX, Doxorubicin hydrochloride]
Out: ~35%

----------
- Experimental Details: Biodetoxification test, NIH/3T3 fibroblasts
- Recorded Conditions: mouse, NIH/3T3 fibroblasts
Counter-ions that a name gives are not always drawn.
Value Kind: viability at 8 h, 400 μg mL−1

In: Give the reported value of viability at 8 h, 400 μg mL−1 for this record: COc1cccc2c1C(=O)c1c(O)c3c(c(O)c1C2=O)C[C@@](O)(C(=O)CO)C[C@@H]3O[C@H]1C[C@H](N)[C@H](O)[C@H](C)O1 [DOX, Doxorubicin hydrochloride]
Out: < 10%
